B1: TPR t1 (parent)
chain: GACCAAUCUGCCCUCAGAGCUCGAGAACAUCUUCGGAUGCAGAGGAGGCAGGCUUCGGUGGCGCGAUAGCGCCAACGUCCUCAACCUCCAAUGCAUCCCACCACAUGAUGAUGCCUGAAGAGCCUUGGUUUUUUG

- Variants of: B1
- Test Description: polymerase ribozyme fitness, log enrichment relative to wild type (log ratio); higher = more active; in vitro selection for triplet polymerase activity
Quantity Name: polymerase ribozyme fitness (log ratio)
A bare number is all that is needed in reply.

Requested read-out: polymerase ribozyme fitness (log ratio). Entry: A6U C64U U92G
-3.05

Ok, now U54A G113A C123U
-2.23

Ok, now A6U G42U C49U C101U G110U C123G
-6.14

Ok, now C40U C53A
0.0513

Ok, now C28G G107C U109G
-6.09

Ok, now A18U C72G
-2.48

Ok, now C11U C53A G63C A103C G113U
-6.41

Ok, now C28G G71A A83G U87G A119U
-5.64

Ok, now G52U G60A A105C U106G A118G
-3.93

Ok, now U7G G120C
0.815

Ok, now C11G A46U G60U A74C A121U
-3.52

Ok, now U54G C102U
-1.84

Ok, now C12A G61U C104U A108C A121U
-3.79
